cytotoxicity: recorded values
METHOD_DESCRIPTION: cytotoxicity in PPC-1 cells, confirmation, cytotoxicity control for TRAIL apoptosis potentiator project, cell-based, ATP content luminescence (AID 1447);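 note: 0% = DMSO-treated cells and 100% = wells holding medium but no cells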
CONDITION_LABEL: PPC-1 viability, ATPlite luminescence, overnight; at 5 µM; stronger effect = higher value
The other results are listed elsewhere or left out.
Please state the figure in %; there is no need to write the unit.

Use these answered entries as a reference point.
COc1ccc(-c2cn3ccc(C)cc3n2)cc1	89.4
O=C(/C=C/c1ccc(Cl)c([N+](=O)[O-])c1)c1ccc(O)cc1	4.1
O=c1oc(/C=C/c2ccccc2)nc2ccccc12	57.5
COc1ccc(C2C(C#N)=C(/N=C/N3CCOCC3)OC3=C2C(=O)CC(C)(C)C3)cc1OC (stereo unspecified)	2.1
CCCCCCCCn1c2c(c(=N)c3c1CCC3)CCCC2	42.7

Here's the next entry for you.
q: For the molecule O=C(c1ccc(F)cc1)n1c(=S)nc2ccccn21 , what cytotoxicity is on record?
a: 81.2

----------
ASSAYED_TARGET: Tumor necrosis factor receptor superfamily member 10B (Homo sapiens) (UniProt O14763)
Sequence (O14763 whole entry, looked up): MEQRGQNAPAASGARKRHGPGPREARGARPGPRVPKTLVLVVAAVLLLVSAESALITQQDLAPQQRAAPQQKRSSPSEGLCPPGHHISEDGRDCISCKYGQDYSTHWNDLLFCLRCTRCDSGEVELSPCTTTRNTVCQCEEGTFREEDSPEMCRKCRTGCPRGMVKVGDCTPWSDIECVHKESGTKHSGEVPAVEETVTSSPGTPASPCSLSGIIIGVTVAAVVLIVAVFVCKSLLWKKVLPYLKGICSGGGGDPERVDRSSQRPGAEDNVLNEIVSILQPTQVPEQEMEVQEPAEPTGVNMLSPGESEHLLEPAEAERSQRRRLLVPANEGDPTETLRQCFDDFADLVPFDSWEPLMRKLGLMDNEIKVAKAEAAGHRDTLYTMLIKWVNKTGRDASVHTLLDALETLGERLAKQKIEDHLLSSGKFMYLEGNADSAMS
METHOD_DESCRIPTION: caspase-8 TRAIL sensitization, hit retest, confirmation, cell-based, NB7+caspase-8, with/without TRAIL, luminescence panel (AID 651596)
CONDITION_LABEL: NB7 neuroblastoma + caspase-8, TRAIL sensitization, luminescence viability, with TRAIL, mean of runs, at 10 µM, stronger effect = higher value
PROPERTY_LABEL: activity (%)
A number alone suffices; assume %.

q: Return reported activity; argument: Nc1ccccc1C#CC(=O)c1ccccc1
a: 33.9

q: Reported activity for CCC(=O)Nc1cccc(-c2ccc(N3CCCCC3)nn2)c1 : what is it?
a: 85.5

----------
ASSAYED_TARGET: Sentrin-specific protease 6 (Homo sapiens) (UniProt Q9GZR1)
METHOD_DESCRIPTION: SENP6 protease inhibitors, confirmation, biochemical, luminescence, single concentration (AID 488915)
CONDITION_LABEL: recombinant SENP6, Z-RLRGG-aminoluciferin luminescence; at 12.5 µM; stronger effect = higher value
Some of the results follow.
Each entry gets 0 (no) if its inhibition stays under 50%, and 1 (yes) if its inhibition is 50% or above.

Consider the worked cases shown below.
CN(CCO)c1ccc(/C=N/Nc2nncc3ccccc23)cc1	1 (yes)
O=C(Nc1ccc(Cl)cc1)c1ccsn1	0 (no)
CSC1=N/C(=C\C=C\c2cccs2)C(=O)S1	1 (yes)
Nc1ccccc1/C=N\N=C/c1ccccc1N	0 (no)
O=C(Nc1nc2ccccc2s1)c1ccc2c(c1)OCO2	1 (yes)

q: Does the compound Cc1ccc(-n2cc3ccc([N+](=O)[O-])cc3n2)cc1 have recorded inhibition that is 50% or more?
a: 0 (no)

q: Is reported inhibition greater than or equal to 50% here: N=c1c2c3c(sc2nc2n1CCCCC2)CCCC3
a: 0 (no)

q: // inclusive: inhibition at least 50%? input: Cc1ccc(N/C=C/C(=O)c2ccccc2)cc1C
a: 1 (yes)

q: # bool: inhibition of C/C(=N\NC(=O)c1ccc(C)cc1)C1C(=O)c2ccccc2C1=O >= 50%
a: 1 (yes)

q: Confirm if inhibition reported for the compound O=c1[nH]c(/C=C/c2cccc(Br)c2)nc2ccccc12 is 50% or above.
a: 0 (no)

q: Does O=C(OCc1ccccc1F)c1ccc2c(c1)OCCO2 have a reported inhibition of at least 50%?
a: 1 (yes)

q: Does inhibition meet or surpass 50% for Cc1ccsc1C(=O)OCC(=O)c1cc(C)n(CC2CCCO2)c1C (stereo not given) ?
a: 1 (yes)

q: Item CCC(=O)NC(Nc1cc(C)ccn1)(C(F)(F)F)C(F)(F)F with inhibition of 50% or above?
a: 0 (no)

q: Textbook exercise: given the entry CN(CC(=O)Nc1ccc(Cl)cc1)C(=O)CNC(=O)c1ccc2ccccc2c1 , state whether its inhibition is greater than or equal to 50%.
a: 0 (no)
